Where do the numbers come from? From ChEMBL document CHEMBL1124472.

Would you kindly list Change for each of these compounds?
# Test system: Canis familiaris
# Assay overview: Percent change in mean arterial blood pressure by 6.2 mg/kg of compound administered intravenously in dog
# Assay type: functional, Canis lupus familiaris
# Stated conditions: route intravenous
Numbers only, in %.

Worked examples, 4 compounds total:
COc1ccc(NC(=O)Nc2c(O)nc(C)c3c(OC)c(OC)c(OC)cc23)cc1	-4
COc1cc2c(C)nc(O)c(NC(=O)Nc3cccc(C(F)(F)F)c3)c2cc1OC	2
COc1cc2c(C)nc(O)c(NC(=O)Nc3ccc(C(F)(F)F)cc3)c2cc1OC	4
COc1cc2cnc(O)c(NC(C)=O)c2cc1OC	14

Lab note: each compound below needs its Change filled in.
1. COc1cccc(NC(=O)Nc2c(O)nc(C)c3cc(OC)c(OC)cc23)c1
2. C=CCOC(=O)Nc1c(O)nc(C)c2cc(OC)c(OC)cc12
3. COc1cc2c(C)nc(O)c(NC(=O)NC(C)(C)C)c2cc1OC
4. COc1ccc(NC(=O)Nc2c(O)nc(C)c3cc(OC)c(OC)cc23)cc1
5. CCCCC(=O)Nc1c(O)nc(C)c2cc(OC)c(OC)cc12
6. COc1cc2c(C)nc(O)c(N)c2cc1OC
7. CCCCOC(=O)Nc1c(O)nc(C)c2cc(OC)c(OC)cc12
8. CCCCNC(=O)Nc1c(O)nc(C)c2cc(OC)c(OC)cc12

Result:
1. -1
2. -9
3. 1
4. 12
5. 3
6. 6
7. -3
8. 4

// each compound listed below needs its Change
1. CCCCCC(=O)Nc1c(O)nc(C)c2cc(OC)c(OC)cc12
2. COc1cc2c(C)nc(O)c(NC(=O)C(C)C)c2cc1OC
3. COc1cc2c(C)nc(O)c(NC(C)=O)c2cc1OC
4. CCOc1cc2c(C)nc(O)c(NC(=O)Nc3ccc(OC)cc3)c2cc1OC

Result:
1: 0; 2: -2; 3: 6; 4: 6

====

# System: Canis familiaris
# Assay overview: Percent change in mean arterial blood pressure by 1.2 mg/kg of compound administered intravenously in dog
# Format: functional, Canis lupus familiaris
# Stated conditions: route intravenous
Test readout: Change (%)
Numbers only, in %.

Recorded Change, per entry:
COc1cc2c(C)nc(O)c(NC(=O)Nc3ccccc3)c2cc1OC	0
C=CCNC(=O)Nc1c(O)nc(C)c2cc(OCC)c(OC)cc12	-2
CCOC(=O)c1ccc(NC(=O)Nc2c(O)nc(C)c3cc(OC)c(OC)cc23)cc1	-2

Ask: Requested field: Change. Item: COc1cc2c(C)nc(O)c(NC(=O)NC3CCCCC3)c2cc1OC
Result: 0

====

# System: Canis familiaris
# Assay overview: Percent change in renal vascular resistant e by 1.2 mg/kg of compound administered intravenously in dog
# Format: functional, Canis lupus familiaris
# Stated conditions: route intravenous
Provide the recorded Change for the entries that follow.
One number for each entry, in %.

Here are 4 compounds together with their reported answers.
COc1cc2c(C)nc(O)c(NC(=O)Nc3ccccc3)c2cc1OC	35
C=CCNC(=O)Nc1c(O)nc(C)c2cc(OC)c(OC)cc12	-44
COc1cc2c(C)nc(O)c(NC(=O)NC3CCCCC3)c2cc1OC	-4
CCOC(=O)c1ccc(NC(=O)Nc2c(O)nc(C)c3cc(OC)c(OC)cc23)cc1	-4

Hi! Can you tell me Change for each of these compounds?
1. CCCNC(=O)Nc1c(O)nc(C)c2cc(OC)c(OC)cc12
2. COc1cccc(NC(=O)Nc2c(O)nc(C)c3c(OC)c(OC)ccc23)c1

Result:
1. 0
2. -16
